// provenance: PubChem BioAssay (NCATS)

- Run Description: BET inhibitor-based combinations targeting novel dependencies in MECOM-rearranged (r) AML: UCSD-AML1 cell line (AID 2202235); note: nearly all actives have a fitted effect of over 40% in size
- Measurement Context: UCSD-AML1 AML cells viability, CellTiter-Glo, 48 h; series mostly up to 46 µM
Results filed as inconclusive are left out. The source made the active and inactive calls. Calls come from the whole dose curve; as a rule, active = well fitted inhibition curve with a large enough effect; inconclusive = small, poorly fitted or top-dose-only effect; inactive = no such curve, though single readings can be large or run the other way.
Possible outcomes: Y for active, N for inactive

>>> label("CO[C@H]1C[C@@H]2CC[C@@H](C)[C@@](O)(O2)C(=O)C(=O)N2CCCC[C@H]2C(=O)O[C@H]([C@H](C)C[C@@H]2CC[C@@H](OP(C)(C)=O)[C@H](OC)C2)CC(=O)[C@H](C)/C=C(\\C)[C@@H](O)[C@@H](OC)C(=O)[C@H](C)C[C@H](C)/C=C/C=C/C=C/1C")
"Y"
>>> label("CC(Oc1ccc(O)cc1)(P(=O)(O)O)P(=O)(O)O")
"N"
>>> label("CC(C)OC(=O)C1=CN(C(=O)c2ccc(F)c(F)c2)CC(C)(C)c2c1[nH]c1ccccc21")
"N"
>>> label("NCCCCCC(=O)O")
"N"
>>> label("COc1cc2nc(N3CCCN(C)CC3)nc(NC3CCN(Cc4ccccc4)CC3)c2cc1OC")
"Y"
>>> label("COc1ccc2cc3[n+](cc2c1OC)CCc1cc2c(cc1-3)OCO2")
"N"
>>> label("Cc1ccc(NC(=O)Nc2cc(C(F)(F)F)ccc2F)cc1Nc1ccc2c(c1)NC(=O)/C2=C\\c1ccc[nH]1")
"N"
>>> label("C[C@@H]1C(=O)O[C@H]2CC34[C@H]5C[C@@H](C(C)(C)C)C36[C@H](OC(=O)[C@@H]6O)O[C@@]4(C(=O)O5)[C@]21O (stereo partly drawn)")
"N"
>>> label("OCCN1C[C@H](O)[C@@H](O)[C@H](O)[C@H]1CO")
"N"
>>> label("Cc1nnc(C(C)C)n1C1CC2CCC(C1)N2CCC(NC(=O)C1CCC(F)(F)CC1)c1ccccc1 (stereo not drawn)")
"N"
>>> label("c1cc(-c2cnn3cc(-c4ccc(OCCN5CCCCC5)cc4)cnc23)ccn1")
"Y"
>>> label("COc1ccc(S(=O)(=O)Nc2cccnc2Nc2ccc(O)cc2)cc1")
"Y"
>>> label("O=C(Nc1cc(C(F)(F)F)cc(C(F)(F)F)c1)c1cc(Cl)ccc1O")
"Y"
>>> label("COc1cc(C(=O)N2CCC(N3CCN(C)CC3)CC2)ccc1Nc1ncc2c(n1)N(C)c1ccccc1C(=O)N2C")
"Y"
>>> label("C[N+]1(C)[C@@H]2CC(OC(=O)[C@H](CO)c3ccccc3)C[C@H]1[C@@H]1O[C@@H]12 (stereo partly drawn)")
"N"
>>> label("O=C(O)CCCCCC(=O)NN=C1CCCC1")
"N"
>>> label("COc1ccc(CC2SC(=O)NC2=O)cc1C(=O)NCc1ccc(C(F)(F)F)cc1 (stereo not drawn)")
"N"
>>> label("CC(C)c1c(C(=O)Nc2ccccc2)c(-c2ccccc2)c(-c2ccc(F)cc2)n1CC[C@@H](O)C[C@@H](O)CC(=O)O")
"Y"
